Measured pIC50, listed per entry for reference.
Tested on: MCF7
Test: Cytotoxicity against human MCF7 cells after 24 hrs by MTT assay
Type: functional, cell-based
Conditions: MCF7, 24 h
The read-out pIC50 is expressed as -log10 of concentration in moles per litre.

SMILES_RECORD	pIC50
Cn1nc(-c2nnc(SCc3ccc(Cl)c(Cl)c3)o2)cc1-c1ccc(C(F)(F)F)cc1	4.57
Cn1nc(-c2ccc(C(F)(F)F)cc2)cc1-c1nnc(SCc2c(F)cccc2F)o1	4.34
Cn1nc(-c2nnc(SCc3cccc(Cl)c3Cl)o2)cc1-c1ccc(C(F)(F)F)cc1	4.49
Cn1nc(-c2ccc(C(F)(F)F)cc2)cc1-c1nnc(SCCc2ccc(F)cc2)o1	4.34
Cn1nc(-c2nnc(SCc3ccc(C(F)(F)F)cc3)o2)cc1-c1ccc(C(F)(F)F)cc1	4.81

Next:
Q: Give the value of pIC50 reported for the following: `Cn1nc(-c2ccc(C(F)(F)F)cc2)cc1-c1nnc(SCc2ccc(C(F)(F)F)cc2)o1`
A: 4.57

---

Measured IC50, listed per entry for reference.
Test system: MCF7
Assay: Cytotoxicity against human MCF7 cells after 24 hrs by MTT assay
Format: functional, cell-based
Conditions: MCF7, 24 h

Some entries whose results are on file:
SMILES_RECORD	IC50
Cn1nc(-c2nnc(SCc3cccc([N+](=O)[O-])c3)o2)cc1-c1ccc(C(F)(F)F)cc1	> 100 µM
Cn1nc(-c2ccc(C(F)(F)F)cc2)cc1-c1nnc(SCc2cccc([N+](=O)[O-])c2)o1	> 100 µM

Next:
Q: Find IC50 for `Cn1nc(-c2ccc(C(F)(F)F)cc2)cc1-c1nnc(S)o1` on MCF7 and write it down.
A: > 100 µM
